assay: Drug level in Crl:CD1(ICR) mouse brain at 1 mg/kg, po after 2 to 6 hrs; type: ADME, organism-based; details: in vivo, read-out: Drug uptake
METRIC_NAME: concentration
Express the reported value numerically, then name its unit.

Answer with the recorded concentration for the compound listed here: "C[C@H]1SC(N)=N[C@](C)(c2cc(NC(=O)c3cnc(OCF)cn3)ccc2F)[C@H]1F"
87 nM

----------
experiment: Unbound brain-to-plasma concentration ratio in Sprague-Dawley rat at 0.5 mg/kg, iv after 30 mins by LC-MS/MS analysis; assay type: ADME, organism-based; details: brain and plasma, read-out: K(p,uu,brain)
METRIC_NAME: Kp uu at 0.5 h
I'd appreciate a reply containing only the number, no unit.

Answer with the recorded Kp uu at 0.5 h for the molecule listed here: "C[C@H]1SC(N)=N[C@](C)(c2cc(NC(=O)c3cnc(OCF)cn3)ccc2F)[C@H]1F"
0.95

----------
test: Oral bioavailability in Cynomolgus monkey at 2.5 mg/kg by LC/MS/MS analysis; format: ADME, organism-based, Macaca fascicularis; settings: in vivo
METRIC_NAME: bioavailability (%)
Kindly provide the numeric value in % only, without the unit symbol.

Answer with the recorded bioavailability for the compound listed here: "C[C@H]1SC(N)=N[C@](C)(c2cc(NC(=O)c3cnc(OCF)cn3)ccc2F)[C@H]1F"
24

----------
experiment: Toxicity in po dosed Sprague-Dawley rat administered as suspension for 2 weeks; format: organism-based; settings: in vivo
METRIC_NAME: NOAEL at 336 h (mg/kg/day)
Kindly provide the numeric value in mg/kg/day only, without the unit symbol.

Answer with the recorded NOAEL at 336 h for the molecule listed here: "C[C@H]1SC(N)=N[C@](C)(c2cc(NC(=O)c3cnc(OCF)cn3)ccc2F)[C@H]1F"
250

----------
assay: Tmax in dog at 2.5 mg/kg, po; assay type: ADME, organism-based, Canis lupus familiaris; conditions: in vivo
METRIC_NAME: Tmax
Express the reported value numerically, then name its unit.

Answer with the recorded Tmax for the compound listed here: "C[C@H]1SC(N)=N[C@](C)(c2cc(NC(=O)c3cnc(OCF)cn3)ccc2F)[C@H]1F"
1.8 h

----------
experiment: Tmax in Sprague-Dawley rat at 2.5 mg/kg, po by LC/MS/MS analysis; type: ADME, organism-based; conditions: in vivo
METRIC_NAME: Tmax (min)
Kindly provide the numeric value in min only, without the unit symbol.

Answer with the recorded Tmax for the compound listed here: "C[C@H]1SC(N)=N[C@](C)(c2cc(NC(=O)c3cnc(OCF)cn3)ccc2F)[C@H]1F"
42

----------
assay: Metabolic stability in human hepatocytes at 2 uM incubated for 2 hr; format: ADME, cell-based, Hepatocyte; details: read-out: Stability
METRIC_NAME: remaining at 2 h, 2 µM (%)
Kindly provide the numeric value in % only, without the unit symbol.

Answer with the recorded remaining at 2 h, 2 µM for the molecule listed here: "C[C@H]1SC(N)=N[C@](C)(c2cc(NC(=O)c3cnc(OCF)cn3)ccc2F)[C@H]1F"
89

----------
assay: Fraction unbound in mouse plasma after 24 hrs by equilibrium dialysis based LC-MS/MS analysis; type: ADME, cell-free
METRIC_NAME: fraction unbound at 24 h
I'd appreciate a reply containing only the number, no unit.

Answer with the recorded fraction unbound at 24 h for the compound listed here: "C[C@H]1SC(N)=N[C@](C)(c2cc(NC(=O)c3cnc(OCF)cn3)ccc2F)[C@H]1F"
0.15

----------
assay: Half life in Sprague-Dawley rat at 0.5 mg/kg, iv by LC/MS/MS analysis; type: ADME, organism-based; details: in vivo
METRIC_NAME: half-life (h)
Kindly provide the numeric value in h only, without the unit symbol.

Answer with the recorded half-life for the compound listed here: "C[C@H]1SC(N)=N[C@](C)(c2cc(NC(=O)c3cnc(OCF)cn3)ccc2F)[C@H]1F"
2.2

----------
experiment: Drug level in Crl:CD1(ICR) mouse brain at 3 mg/kg, po at 6 hrs; assay type: ADME, organism-based; conditions: read-out: Drug uptake
METRIC_NAME: concentration at 6 h (nM)
Kindly provide the numeric value in nM only, without the unit symbol.

Answer with the recorded concentration at 6 h for the compound listed here: "C[C@H]1SC(N)=N[C@](C)(c2cc(NC(=O)c3cnc(OCF)cn3)ccc2F)[C@H]1F"
611

----------
assay: Cmax in dog at 2.5 mg/kg, po; format: ADME, organism-based, Canis lupus familiaris; parameters: dose 2.5 mg/kg, route oral; details: in vivo
METRIC_NAME: Cmax
Express the reported value numerically, then name its unit.

Answer with the recorded Cmax for the compound listed here: "C[C@H]1SC(N)=N[C@](C)(c2cc(NC(=O)c3cnc(OCF)cn3)ccc2F)[C@H]1F"
0.685 µg/mL

----------
assay: Cmax in Cynomolgus monkey at 2.5 mg/kg, po by LC/MS/MS analysis; assay type: ADME, organism-based, Macaca fascicularis; parameters: dose 2.5 mg/kg, route oral; settings: in vivo
METRIC_NAME: Cmax (ng/mL)
Kindly provide the numeric value in ng/mL only, without the unit symbol.

Answer with the recorded Cmax for the molecule listed here: "C[C@H]1SC(N)=N[C@](C)(c2cc(NC(=O)c3cnc(OCF)cn3)ccc2F)[C@H]1F"
54

----------
assay: Volume of distribution at steady state in Sprague-Dawley rat at 0.5 mg/kg, iv by LC/MS/MS analysis; type: ADME, organism-based; details: in vivo, read-out: Vdss
METRIC_NAME: Vd (L/kg)
Kindly provide the numeric value in L/kg only, without the unit symbol.

Answer with the recorded Vd for the compound listed here: "C[C@H]1SC(N)=N[C@](C)(c2cc(NC(=O)c3cnc(OCF)cn3)ccc2F)[C@H]1F"
5

----------
assay: AUC in Cynomolgus monkey at 2.5 mg/kg, po by LC/MS/MS analysis; assay type: ADME, organism-based, Macaca fascicularis; settings: in vivo
METRIC_NAME: AUC (ng·h/mL)
Kindly provide the numeric value in ng·h/mL only, without the unit symbol.

Answer with the recorded AUC for the molecule listed here: "C[C@H]1SC(N)=N[C@](C)(c2cc(NC(=O)c3cnc(OCF)cn3)ccc2F)[C@H]1F"
429

----------
test: Fraction unbound in mouse brain at 5 uM incubated for 5 hrs by HPLC-MS/MS analysis; type: ADME, tissue-based
METRIC_NAME: fraction unbound at 5 h, 5 µM
I'd appreciate a reply containing only the number, no unit.

Answer with the recorded fraction unbound at 5 h, 5 µM for the molecule listed here: "C[C@H]1SC(N)=N[C@](C)(c2cc(NC(=O)c3cnc(OCF)cn3)ccc2F)[C@H]1F"
0.034

----------
test: Metabolic stability in cynomolgus monkey hepatocytes at 2 uM incubated for 2 hr; format: ADME, cell-based, Macaca fascicularis, Hepatocyte; settings: read-out: Stability
METRIC_NAME: remaining at 2 h, 2 µM (%)
Kindly provide the numeric value in % only, without the unit symbol.

Answer with the recorded remaining at 2 h, 2 µM for the compound listed here: "C[C@H]1SC(N)=N[C@](C)(c2cc(NC(=O)c3cnc(OCF)cn3)ccc2F)[C@H]1F"
55

----------
test: Clearance in Sprague-Dawley rat at 0.5 mg/kg, iv by LC/MS/MS analysis; type: ADME, organism-based; details: in vivo
METRIC_NAME: clearance

Answer with the recorded clearance for the compound listed here: "C[C@H]1SC(N)=N[C@](C)(c2cc(NC(=O)c3cnc(OCF)cn3)ccc2F)[C@H]1F"
24.8 to 27 mL/min/kg

----------
assay: Tmax in mouse at 2.5 mg/kg, po; format: ADME, organism-based; conditions: in vivo
METRIC_NAME: Tmax (min)
Kindly provide the numeric value in min only, without the unit symbol.

Answer with the recorded Tmax for the molecule listed here: "C[C@H]1SC(N)=N[C@](C)(c2cc(NC(=O)c3cnc(OCF)cn3)ccc2F)[C@H]1F"
18

----------
assay: Cmax in mouse at 2.5 mg/kg, po; type: ADME, organism-based; design: dose 2.5 mg/kg, route oral; conditions: in vivo
METRIC_NAME: Cmax (ng/mL)
Kindly provide the numeric value in ng/mL only, without the unit symbol.

Answer with the recorded Cmax for the compound listed here: "C[C@H]1SC(N)=N[C@](C)(c2cc(NC(=O)c3cnc(OCF)cn3)ccc2F)[C@H]1F"
195

----------
assay: Clearance in dog at 0.5 mg/kg, iv; assay type: ADME, organism-based, Canis lupus familiaris; details: in vivo
METRIC_NAME: clearance (mL/min/kg)
Kindly provide the numeric value in mL/min/kg only, without the unit symbol.

Answer with the recorded clearance for the compound listed here: "C[C@H]1SC(N)=N[C@](C)(c2cc(NC(=O)c3cnc(OCF)cn3)ccc2F)[C@H]1F"
2.6

----------
assay: Fraction unbound in human plasma after 24 hrs by equilibrium dialysis based LC-MS/MS analysis; type: ADME, cell-free
METRIC_NAME: fraction unbound at 24 h

Answer with the recorded fraction unbound at 24 h for the compound listed here: "C[C@H]1SC(N)=N[C@](C)(c2cc(NC(=O)c3cnc(OCF)cn3)ccc2F)[C@H]1F"
0.083

----------
organism: Canis familiaris; assay: animal or person; format: functional, organism-based; settings: Canis lupus familiaris, Beagle
METRIC_NAME: pEC50
The value called pEC50 is obtained by taking minus log10 of the concentration in mol/L.

INSERT INTO results (compound, reported_measurement) VALUES
  ('C[C@H]1OC[C@]2(c3cc(NC(=O)c4cnc(C(F)F)cn4)ccc3F)N=C(N)SC[C@H]12 [ELENBECESTAT]', 8.09);

Please turn your attention to the following entry.
Answer with the recorded pEC50 for the compound listed here: "C[C@H]1SC(N)=N[C@](C)(c2cc(NC(=O)c3cnc(OCF)cn3)ccc2F)[C@H]1F"
8.74
